These measurements were taken from the emibetuzumab library of Makowski et al. (2022).

B1: VH:VL chains; a variant is named by its letters at X, in order (parent)
chain 1: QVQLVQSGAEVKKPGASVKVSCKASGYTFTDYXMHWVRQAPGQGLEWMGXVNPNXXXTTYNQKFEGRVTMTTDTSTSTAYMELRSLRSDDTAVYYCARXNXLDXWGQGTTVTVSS
chain 2: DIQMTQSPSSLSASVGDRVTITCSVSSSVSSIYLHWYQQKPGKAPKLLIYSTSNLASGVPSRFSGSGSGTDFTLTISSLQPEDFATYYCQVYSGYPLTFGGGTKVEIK

- Variants of: B1
- protocol-summary: yeast display scFab, FACS + sequencing
- run-conditions: with MET
Some of the results follow. The true hit rate is not given.
attribute-measured: antigen binding call

What does the data say about its antigen binding call? Entry: VRGGDAVY chain 1 G44D no binding

State the recorded antigen binding call for this entry: VRGGDAAS binds

So what does the record say about antigen binding call for VETEGDGF ? no binding

For the variant shown here, YKRGDAGY , give the reported antigen binding call. binds

// returns reported antigen binding call for input YTRGAAGY no binding

Continuing:
# get_value(readout='antigen binding call', item= VRGKAAVS ) no binding

// returns reported antigen binding call for input VAGGDAAA no binding
